Cited source: paper PMC4344510

target: Hfq N48A (Escherichia coli, UniProt P0A6X3 1-102, N48A); test: fluorescence polarization
Observation Type: Kd (nM)
Your answer is read as nM, so omit the unit and give the number.

Binder: AUAACUA (ssRNA) [Aus (FAM)]
Units Symbol: nM
Kd: 16.8

Shift focus to the following entry.
Request: Form field: reported Kd of AACUAAA (ssRNA) [Ads (FAM)]
Response: 92.8
